Measured IC50 (Potassium channel subfamily K member 3 (Rattus norvegicus) (UniProt O54912))

Okay, here is my list. What is IC50 for each of these?
1. COc1ccc(C(=O)Nc2cccc(NC(=O)c3ccccc3)c2)cc1
2. Cc1cccc(C(=O)Nc2ccccc2NC(=O)c2ccccc2)c1
3. Cc1cccc(C(=O)Nc2ccc(C(=O)Nc3ccccc3)cc2)c1
4. CCOc1ccc(NC(=O)c2cccc(NC(=O)C3CCCC3)c2)cc1
5. CC(C1CC2CCC1C2)n1c(-c2cccc(Cl)c2)n[nH]c1=S (stereo unspecified)
6. CCOc1ccccc1C(=O)Nc1cccc(NC(=O)c2ccccc2OC)c1
7. COc1cccc(-c2n[nH]c(=S)n2C(C)C2CC3CCC2C3)c1OC (stereo unspecified)
8. Cc1cccc(C(=O)Nc2cccc(NC(=O)c3cccs3)c2)c1

a:
["2270 nM", "260 nM", "183 nM", "70.2 nM", "20 nM", "2 nM", "15 nM", "3 nM"]

Okay, here is my list. What is IC50 for each of these?
1. O=C(Nc1cccc(NC(=O)c2cccnc2)c1)c1ccccc1
2. COc1cc(OC)cc(-c2n[nH]c(=S)n2C(C)C2CC3CCC2C3)c1 (stereo unspecified)
3. COc1ccc(C(=O)Nc2cccc(NC(=O)c3cccc(C)c3)c2)cc1
4. CCOc1ccccc1NC(=O)c1cccc(NC(=O)c2cccc(OC)c2)c1

a:
1: 1290 nM; 2: 110 nM; 3: 1330 nM; 4: 5 nM

The values you see were collected from PubChem BioAssay AID623912.
